- system_tested: TERF1
- study_conditions: ASO; note: test concentration or dose not given here
These antisense oligonucleotides have a phosphorothioate backbone; sugars and methylation of C are not fully specified.
Please provide measured remaining target (mRNA or protein) (fraction of control) for the entries that follow.
No unit in the answer, please; the number alone is enough.

Dear colleague, I am looking for the recorded remaining target (mRNA or protein) (fraction of control) of the following sequence: CTTTCTGAGAGATTATCAT
0.93

Dear colleague, I am looking for the recorded remaining target (mRNA or protein) (fraction of control) of the following sequence: CACAGTCCCCAGTAGGTAAG
0.56

Dear colleague, I am looking for the recorded remaining target (mRNA or protein) (fraction of control) of the following sequence: GGCTGACTCTTTGAAACAGG
0.6

Dear colleague, I am looking for the recorded remaining target (mRNA or protein) (fraction of control) of the following sequence: TAGGCATCAGGTTATAAAGA
0.73

Dear colleague, I am looking for the recorded remaining target (mRNA or protein) (fraction of control) of the following sequence: TCAGTCTTCGCTGTCTGAGG
0.46

Dear colleague, I am looking for the recorded remaining target (mRNA or protein) (fraction of control) of the following sequence: TTTAGGCAGGACGCAGTGGC
0.47

Dear colleague, I am looking for the recorded remaining target (mRNA or protein) (fraction of control) of the following sequence: CTCGGAGCGGCCGTCGCGGA
0.9

Dear colleague, I am looking for the recorded remaining target (mRNA or protein) (fraction of control) of the following sequence: TCTGCTCCTCAGTAGGGTCG
0.68

Dear colleague, I am looking for the recorded remaining target (mRNA or protein) (fraction of control) of the following sequence: GAGGTTCAGTGAGCTGAAAT
0.81

Dear colleague, I am looking for the recorded remaining target (mRNA or protein) (fraction of control) of the following sequence: GCTTTTACAAACACAATCAG
0.73

Dear colleague, I am looking for the recorded remaining target (mRNA or protein) (fraction of control) of the following sequence: TTAACTCTGGTAGCACAAAC
0.59

Dear colleague, I am looking for the recorded remaining target (mRNA or protein) (fraction of control) of the following sequence: TTACAAACACAATCAGTCTT
0.77

Dear colleague, I am looking for the recorded remaining target (mRNA or protein) (fraction of control) of the following sequence: CAAACAAAATGCAGTGATCA
0.84

Dear colleague, I am looking for the recorded remaining target (mRNA or protein) (fraction of control) of the following sequence: GAAACCCCGCCTCTACTAAA
0.74

Dear colleague, I am looking for the recorded remaining target (mRNA or protein) (fraction of control) of the following sequence: CTGAGGAAACATCCTCCGCC
0.68

Dear colleague, I am looking for the recorded remaining target (mRNA or protein) (fraction of control) of the following sequence: CTCGGCCACCAGGCCCGCGT
0.82

Dear colleague, I am looking for the recorded remaining target (mRNA or protein) (fraction of control) of the following sequence: ACTGGCAAGCTGTTAGACTG
0.49

Dear colleague, I am looking for the recorded remaining target (mRNA or protein) (fraction of control) of the following sequence: AGTCTTCGCTGTCTGAGGAA
0.59

* * *

- system_tested: BIRC5
- study_conditions: ASO
These antisense oligonucleotides have a phosphorothioate backbone; sugars and methylation of C are not fully specified.
attribute_measured: remaining target (mRNA or protein) (fraction of control)
No unit in the answer, please; the number alone is enough.

// map CCGTGTGGAGAACGTGAC to recorded remaining target (mRNA or protein) (fraction of control) (system: BIRC5)
0.78

// map TGTGCTATTCTGTGAATT to recorded remaining target (mRNA or protein) (fraction of control) (system: BIRC5)
0.8

* * *

Please provide measured remaining target (mRNA or protein) (fraction of control) for the entries that follow.
- system_tested: DUSP8
- study_conditions: ASO
These antisense oligonucleotides have a phosphorothioate backbone; sugars and methylation of C are not fully specified.

Dear colleague, I am looking for the recorded remaining target (mRNA or protein) (fraction of control) of the following sequence: CCTCAGGCGCGGCGTCCGGG
≥ 1

Dear colleague, I am looking for the recorded remaining target (mRNA or protein) (fraction of control) of the following sequence: AGAGGTGAGGCAGGATGCGG
≥ 1

Dear colleague, I am looking for the recorded remaining target (mRNA or protein) (fraction of control) of the following sequence: TGGTCATAGACCACCACGTC
≥ 1

Dear colleague, I am looking for the recorded remaining target (mRNA or protein) (fraction of control) of the following sequence: CGCCCGCCCGGCCGAAGGGC
0.86

Dear colleague, I am looking for the recorded remaining target (mRNA or protein) (fraction of control) of the following sequence: TTTCACAGTAGTTGTCGTTG
≥ 1

Dear colleague, I am looking for the recorded remaining target (mRNA or protein) (fraction of control) of the following sequence: AGCAGATGTTGACGGAGCTG
≥ 1

Dear colleague, I am looking for the recorded remaining target (mRNA or protein) (fraction of control) of the following sequence: GGCCAGCCGGTCCGCGCGTC
0.52

Dear colleague, I am looking for the recorded remaining target (mRNA or protein) (fraction of control) of the following sequence: CAGGGCGGCCAGCAGCTTCA
≥ 1

* * *

- system_tested: DUSP9
- study_conditions: ASO
These antisense oligonucleotides have a phosphorothioate backbone; sugars and methylation of C are not fully specified.
Please provide measured remaining target (mRNA or protein) (fraction of control) for the entries that follow.
No unit in the answer, please; the number alone is enough.

Dear colleague, I am looking for the recorded remaining target (mRNA or protein) (fraction of control) of the following sequence: CGAGCCCTCCTGCCCTCCCC
0.65

Dear colleague, I am looking for the recorded remaining target (mRNA or protein) (fraction of control) of the following sequence: AGAAGAGGCAGGCTCCGAGC
0.53

Dear colleague, I am looking for the recorded remaining target (mRNA or protein) (fraction of control) of the following sequence: AGGCCATGGATGTGGGCGGC
0.57

Dear colleague, I am looking for the recorded remaining target (mRNA or protein) (fraction of control) of the following sequence: AGGAGCAGGAGCCGCGGCCG
0.7

Dear colleague, I am looking for the recorded remaining target (mRNA or protein) (fraction of control) of the following sequence: CCAGGCAGGAGCGCGCGCAC
0.62

Dear colleague, I am looking for the recorded remaining target (mRNA or protein) (fraction of control) of the following sequence: CCGGGCACTGCCCAGATAGA
0.62

Dear colleague, I am looking for the recorded remaining target (mRNA or protein) (fraction of control) of the following sequence: CGTCGCGGCCGGGAAGTTTC
0.95

Dear colleague, I am looking for the recorded remaining target (mRNA or protein) (fraction of control) of the following sequence: CTCATGGAGTCGCGGTCAGC
0.86

Dear colleague, I am looking for the recorded remaining target (mRNA or protein) (fraction of control) of the following sequence: TGGAGCTTCTGCATGAGGTA
0.75

Dear colleague, I am looking for the recorded remaining target (mRNA or protein) (fraction of control) of the following sequence: CGAGCACCCCGCAGTTCTGG
0.94

Dear colleague, I am looking for the recorded remaining target (mRNA or protein) (fraction of control) of the following sequence: AGACCCTCCATGGGCGATCG
0.45

Dear colleague, I am looking for the recorded remaining target (mRNA or protein) (fraction of control) of the following sequence: CGAAGAAGTTTGGGAGGTTG
0.3

Dear colleague, I am looking for the recorded remaining target (mRNA or protein) (fraction of control) of the following sequence: CCCATGAAGTTGAAGTTGGG
0.44

Dear colleague, I am looking for the recorded remaining target (mRNA or protein) (fraction of control) of the following sequence: GACAGAAATGAATGACTGTG
0.14

Dear colleague, I am looking for the recorded remaining target (mRNA or protein) (fraction of control) of the following sequence: TGGGCAGGGACACCCGTGGG
0.79

Dear colleague, I am looking for the recorded remaining target (mRNA or protein) (fraction of control) of the following sequence: GCCACGCTCAGCGCCCCACC
0.94

Dear colleague, I am looking for the recorded remaining target (mRNA or protein) (fraction of control) of the following sequence: AGCGGCCCAGACCCTCCATG
0.46

Dear colleague, I am looking for the recorded remaining target (mRNA or protein) (fraction of control) of the following sequence: CCCAGGGCCGGGACCTGGGC
0.98

Dear colleague, I am looking for the recorded remaining target (mRNA or protein) (fraction of control) of the following sequence: AGGCCCCAGCCCCGAGAGGC
0.54

Dear colleague, I am looking for the recorded remaining target (mRNA or protein) (fraction of control) of the following sequence: GGGCGCTCCGCTCTGCTCGG
0.8

Dear colleague, I am looking for the recorded remaining target (mRNA or protein) (fraction of control) of the following sequence: GCCCAGACCCTCCATGGGCG
0.92

Dear colleague, I am looking for the recorded remaining target (mRNA or protein) (fraction of control) of the following sequence: GACCCCATCTCCTCCGGCGG
0.23

Dear colleague, I am looking for the recorded remaining target (mRNA or protein) (fraction of control) of the following sequence: ACCCTCCATGGGCGATCGGC
0.43

Dear colleague, I am looking for the recorded remaining target (mRNA or protein) (fraction of control) of the following sequence: GGGCCCCGCAGCAGCAAAAG
0.35

Dear colleague, I am looking for the recorded remaining target (mRNA or protein) (fraction of control) of the following sequence: TGACAACACCAGTGATGGCA
0.52

Dear colleague, I am looking for the recorded remaining target (mRNA or protein) (fraction of control) of the following sequence: CGGCCCAGACCCTCCATGGG
0.57

Dear colleague, I am looking for the recorded remaining target (mRNA or protein) (fraction of control) of the following sequence: TCCATGGGCGATCGGCTCCC
0.74

Dear colleague, I am looking for the recorded remaining target (mRNA or protein) (fraction of control) of the following sequence: CCTCCATGGGCGATCGGCTC
0.7

Dear colleague, I am looking for the recorded remaining target (mRNA or protein) (fraction of control) of the following sequence: TGGGCGATCGGCTCCCTACA
0.91

Dear colleague, I am looking for the recorded remaining target (mRNA or protein) (fraction of control) of the following sequence: CATGGGCGATCGGCTCCCTA
0.85

Dear colleague, I am looking for the recorded remaining target (mRNA or protein) (fraction of control) of the following sequence: CCACGGGCACTGGACCGGGC
0.5

Dear colleague, I am looking for the recorded remaining target (mRNA or protein) (fraction of control) of the following sequence: AAGAACCGCGACAGGTTCTG
0.83
